Values from patent US20210032351A1

Target: T1, human EGFRvIII-hFc protein (human, UniProt P00533 25-645)
T1 construct: extracellular domain; made in HEK293 cells, purified on protein A; also called immunogen A; hFc-tagged EGFRvIII protein; not shown: human IgG Fc fragment (hFc) of the pCpC vector
Experiment: ELISA, coated EGFRvIII-hFc, antibody 0.01 nM
Listed here are binders together with their documented OD450 nm.
RECORDED METRIC: OD450 nm

- Murine anti-49G12 (antibody, V domains shown, murine hybridoma antibody; also called 49G12G5) VH: EVQLLQSGAELVKPGASVKLSCTASGFNIKDYYMHWVKQRTEQGLEWIGRIDPEDGETKYAPKFQGKATMTADTSSNTAYLQLSSLTSEDTAVYYCASSAYYGRNYWGQGTTLTVSS VL: QIVLTQSPAIMSASPGEKVTLTCSASSSLSSSYLYWYQQKPGSSPKLWIYSTSNLASGVPARFSGSGSGTSYSLTISSMEAEDAASYFCHQWSSYPYTFGGGTKLEIK: 0.14
- Murine anti-51G7 (antibody, V domains shown, murine hybridoma antibody; also called 51G7C2) VH: EVQLQQSGAELVKPGASVKLSCTASGFNIKDFYIHWVKQRTEQGLEWIGRIDPEDGETKYAPKFQDKATIIADTSSNTAYLQLSSLTSEDTAVYYCASSSYYGNNYWGQGTTLTVSS VL: QIVLTQSPAIMSASPGEKVTLTCSASSSVSSNYLYWYQQKPGSSPKLWIYSTSNLASGVPARFSGSGSGTSYSLTISSMEAEDAASYFCHQWSSFPYTFGGGTKLEIK: 0.15
- Murine anti-53D8 (antibody, V domains shown, murine hybridoma antibody; also called 53D8H4) VH: QVQLQQSGAELARPGASVKMSCKASGYTFTSYTMHWVKQRPGQGLEWIGYINPSSGYTKYNQIFKDKATLTADKSSSTAYMQLSSLTSEDSAVYYCTRGGGRGFAYWGQGTLVTVSA VL: DILMTQSPSSMSVSLGDTVSITCHASQDINSNIGWLQQKPGKSFKGLIYHGTNLEDGVPSRFSGSGSGADYSLTISSLESEDFADYYCVQYAQFPFTFGSGTKLEIK: 0.16
- Murine anti-56F10 (antibody, V domains shown, murine hybridoma antibody; also called 56F10G2) VH: EVQLQQSGAELVKPGASVKLSCTASGFNIKDFYMHWVKQRTEQGLEWIGRIDPEDGETKYAPKFQGKATITADTSSNTAYLQLSSLTSEDTAVYYCGCRTGGFAYWGQGTLVTVSA VL: QIVLTQSPAIMSASPGEKVTMTCSASSSVSYLYWYQQKPGSSPSLLIYDTSNLASGVPVRFSGSGSGTSYSLTISRMEAEDAATYYCQQWSRNPWTFGGGTKLEIK: 0.11
- Murine anti-46C4 (antibody, V domains shown, murine hybridoma antibody; also called 46C4A6) VH: EVHLQQSVAELVRPGASVKLSCTASGFNIKNTYMHWVKQRPEQGLEWIGRIDPANGNTKYAPKFQGKATITADTSSNTAYLQLSSLTSEDTAIYYCASDFDYWGQGTTLTVSS VL: DVLMTQTPLSLPVSLGDQVSISCRSSQSIVNSNGNTHLEWYLQKPGQSPKVLIYKVSKRFSGVPDRFSGSGSGTDFTLKISRVEAEDLGVYYCFQGSHVPYTFGGGTKLEIK: 0.15
- Murine anti-59G3 (antibody, V domains shown, murine hybridoma antibody; also called 59G3F12) VH: DVQLQESGPGLVKPSQSLSLTCSVTGYSITSGYYWHWIRQFPENKLEWMGYISYDGSNIYNPSLKNRISITRDTSKNQFFLKLNSVTTEDTATYYCAINSDYALDYWGQGTSVTVSS VL: QIVLTQSPAIMSASPGEKVTMTCSASSSVSYMYWYQQKPGSSPRLLIYDTSNLASGVPVRFSGSGSGTSYSLTISRMEAEDAATYYCQQWSSYSLTFGAGTKLELK: 0.13
- Murine anti-64F1 (antibody, V domains shown, murine hybridoma antibody; also called 64F1F8) VH: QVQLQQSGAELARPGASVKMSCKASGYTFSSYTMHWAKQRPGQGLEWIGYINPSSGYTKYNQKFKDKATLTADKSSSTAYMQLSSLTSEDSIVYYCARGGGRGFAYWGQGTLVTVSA VL: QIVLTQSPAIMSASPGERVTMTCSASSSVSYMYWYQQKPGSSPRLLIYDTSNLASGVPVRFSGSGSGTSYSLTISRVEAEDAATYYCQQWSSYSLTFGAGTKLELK: 0.16
